Test: NCI Yeast Anticancer Drug Screen. Data for the bub3 strain (AID 167)
Conditions: S. cerevisiae bub3 mutant strain, at 50.0 µM, hits give high values
This is part of a sample that, as a whole, favours compounds with a hit. Of some 79,000 tested, about 15% had one in any assay.
observed property: growth inhibition (%)
// units = %; emit number, no label

{"compound": "O=[N+]([O-])c1cccc(C=NC23CC4CC(CC(C4)C2)C3)c1", "growth inhibition (%)": 30.1}
{"compound": "OCC(O)COc1ccccc1F (stereo unspecified)", "growth inhibition (%)": -7.5}

Now examine the next entry.
-- ask If you can, please state the reported growth inhibition value of O=C1C2C3C=CC(C2C(=O)N1COP(=O)(O)O)C1C2C(=O)N(COP(=O)(O)O)C(=O)C2C31 (stereo unspecified) .
-- reply -11.2

----------
Assay: NCI Yeast Anticancer Drug Screen. Data for the mlh1 rad18 strain (AID 175)
Details: S. cerevisiae mlh1 rad18 strain growth inhibition; at 50.0 µM; hits give high values
This is part of a sample that, as a whole, favours compounds with a hit. Of some 79,000 tested, about 15% had one in any assay. Active and inactive are the calls of the source. Cut-off read from the data, not from the text of the source: active = growth inhibition above about 70%; inactive = the rest.
This listing pairs compounds with measured growth inhibition.

Previously resolved entries follow.
{"compound": "COC(=O)C(/C(=N\\O)C(=O)Nc1cccc(Cl)c1C)c1cnc2ccccc2n1 (stereo unspecified)", "observed property": "growth inhibition", "endpoint result": "12.5% (inactive)"}
{"compound": "CCN(CC)c1ccc(S(=O)(=O)NC(=O)OC)cc1", "observed property": "growth inhibition", "endpoint result": "-5.5% (inactive)"}
{"compound": "CN(C)C(CN)CC1=C(CC(CN)N(C)C)CCC1 (stereo unspecified)", "observed property": "growth inhibition", "endpoint result": "17.6% (inactive)"}
{"compound": "CCN(CC)CCCCNc1ccnc(N)n1", "observed property": "growth inhibition", "endpoint result": "16% (inactive)"}
{"compound": "COc1c(O)c2c3c(cc(C)cc3c1C(C)C)OC2", "observed property": "growth inhibition", "endpoint result": "93.1% (active)"}
{"compound": "OC1CC2COCC2CC1O (stereo unspecified)", "observed property": "growth inhibition", "endpoint result": "10% (inactive)"}

-- ask If you can, please state the reported growth inhibition value of "CCN(CC)CC(C)=O" .
-- reply -6.1% (inactive)

-- ask If you can, please state the reported growth inhibition value of "N#C/C(=C\c1ccc2ccccc2c1)c1ccccc1" .
-- reply 52% (inactive)

-- ask If you can, please state the reported growth inhibition value of "CC(/C=N/NC1=NCCCN1)=N\NC1=NCCCN1" .
-- reply -12.2% (inactive)

-- ask If you can, please state the reported growth inhibition value of "O=CN(C1CCCCC1)C1CCCCC1" .
-- reply 0% (inactive)

-- ask If you can, please state the reported growth inhibition value of CSc1ncc2c(n1)-c1ccccc1OC2N1CCOCC1 (stereo unspecified) .
-- reply 40.7% (inactive)

-- ask If you can, please state the reported growth inhibition value of "CC(C)C(=O)Nc1ccccc1-c1ccccc1" .
-- reply 8.8% (inactive)

----------
Assay: NCI Yeast Anticancer Drug Screen. Data for the rad50 strain (AID 155);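 note: 0% = growth of vehicle-only cultures of the same strain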
Settings: S. cerevisiae rad50 strain growth inhibition; at 50.0 µM; hits give high values
The panel holds about 79,000 compounds, 15% with a hit somewhere; the sample as a whole holds those more often. Activity calls are given as the source filed them. Cut-off read from the data, not from the text of the source: active = growth inhibition above about 70%; inactive = the rest. Where a SMILES comes first, the peptide text is derived from it. [ ]: non-standard residue; d: D form. Ac5c = NC1(C(=O)O)CCCC1
This listing pairs molecules with measured growth inhibition.

Previously resolved entries follow.
{"molecule": "O=C(Nc1ncnc2c1ncn2C1CCC(CO)O1)c1ccccc1 (stereo not given)", "growth inhibition": "-1.35% (inactive)"}
{"molecule": "COC(=O)C1(NC(=O)C(C)NC(=O)C(CCCCN)NC(=O)C(CC(C)C)NC(C)=O)CCCC1 (stereo not given) (Ac-LKA[Ac5c]-OMe; configuration not given here)", "growth inhibition": "3.1% (inactive)"}
{"molecule": "COCc1ccnn1-c1ccccc1C", "growth inhibition": "-5.85% (inactive)"}
{"molecule": "O=C(Cc1csc(N=Nc2c(O)[nH]c3ccccc23)n1)Nc1ccccc1", "growth inhibition": "-16.2% (inactive)"}

-- ask If you can, please state the reported growth inhibition value of "Cc1ccc(S(=O)(=O)NCC(=O)OCc2ccccc2)cc1" .
-- reply 4.15% (inactive)

Recorded values, source PubChem BioAssay (NCI).
